For each entry below, report its binding affinity ratio (IC50 of standard peptide / IC50 of test peptide) value.
Molecular target: HLA-A*6801 (human)
Experiment: competition with 125I-labelled probe peptide for purified HLA-A*6801, gel filtration; ratio to standard peptide 941.12

Use the examples below as a reference point.
-- ask Endpoint output: binding affinity ratio (IC50 of standard peptide / IC50 of test peptide) of PLSYQHFR (modifications not checked) [HBV POL 2 peptide PLSYQHFR] . Value?
-- reply 0.0001

-- ask Another binder: PLSYQHFRK (modifications not checked) [HBV POL 2 peptide …]
-- reply 0.0002

-- ask Quick one: PLEEELPR (modifications not checked) [HBV POL 20 peptide PLEEELPR]
-- reply 0.0001

-- ask Do the same for PLTVNEKRR (modifications not checked) [HBV POL 98 peptide …] please
-- reply 0.0002

Field: next binder
-- ask Returns the measured binding affinity ratio (IC50 of standard peptide / IC50 of test peptide) for the input binder. Input: PLTVNEKR (modifications not checked) [HBV POL 98 peptide PLTVNEKR]
-- reply 0.0001
